Reference for the values: patent US20230192608A1

system: male white Swiss mice (CD-1); experiment: Subcutaneous pentylenetetrazole test (scPTZ), screening; type: in vivo; settings: 100 mg/kg intraperitoneal, time point 0.5 h
I'd appreciate it if you could supply scPTZ: number of mice protected/number of mice tested values for the items below.

C[C@H](C(=O)NCc1ccccc1F)N1C(=O)CCC1=O [(2R)-2, reference compound] ... 3/4

Consider the following items and state reported scPTZ: number of mice protected/number of mice tested for each.
1. C[C@H](C(=O)NCc1ccccc1F)N1CCCC1=O
2. C[C@@H](C(=O)NCc1ccccc1F)N1C(=O)CCC1=O [(2S)-2, reference compound]
3. C[C@@H](C(=O)NCc1ccccc1F)N1CCCC1=O
4. C[C@@H](C(=O)NCc1ccccc1)N1CCCC1=O
5. C[C@H](C(=O)NCc1ccccc1)N1CCCC1=O
6. C[C@@H](C(=O)NCc1ccccc1)N1C(=O)CCC1=O [(2S)-1, reference compound]
7. C[C@H](C(=O)NCc1ccccc1)N1C(=O)CCC1=O [(2R)-1, reference compound]
8. CC(C(=O)NCc1ccccc1F)N1CCCC1=O (stereo not drawn)

1: 3/4; 2: 2/4; 3: 2/4; 4: 2/4; 5: 3/4; 6: 2/4; 7: 3/4; 8: 2/4

Dear colleague, could you send me scPTZ: number of mice protected/number of mice tested for each of the items below? Thanks.
1. CC(C(=O)NCc1ccccc1F)N1C(=O)CCC1=O (racemic) [(2R,S)-2, reference compound]
2. CC(C(=O)NCc1ccccc1)N1CCCC1=O (stereo not drawn)
3. CC(C(=O)NCc1ccccc1)N1C(=O)CCC1=O (racemic) [(2R,S)-1, reference compound]

1: 3/4; 2: 2/4; 3: 2/4
